Reported Emax ratio to BG87P by item:
tgt: T1, human claudin 6 (CLDN6) (human, UniProt P56747 1-220)
T1 construct: also called human CLDN6; hCLDN6
T1 sequence: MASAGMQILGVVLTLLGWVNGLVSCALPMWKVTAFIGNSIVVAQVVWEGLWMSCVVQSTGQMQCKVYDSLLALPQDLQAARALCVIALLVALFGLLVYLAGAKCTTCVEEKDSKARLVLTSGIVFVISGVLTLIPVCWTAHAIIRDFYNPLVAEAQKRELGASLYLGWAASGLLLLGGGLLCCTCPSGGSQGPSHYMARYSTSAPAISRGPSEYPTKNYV
experiment_summary: FACS, PA-1 cells (endogenous CLDN6)

binder: BG87P-25 (antibody, V domains shown) VH: QIQLVQSGAEVKKPGASVKVSCKASGYSFTDYHINWVRQAPGQRLEWMGWIYPGSGYTKYNEKFKGRVTLTRDTSASTAYMELSSLRSEDTAVYYCARSGIYHYVSSYYFDHWGKGTTVTVSS VL: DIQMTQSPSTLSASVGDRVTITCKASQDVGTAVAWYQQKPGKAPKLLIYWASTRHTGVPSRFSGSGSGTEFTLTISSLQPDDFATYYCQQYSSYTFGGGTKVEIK
unit_label: ratio
Emax ratio to BG87P: 0.59
//
binder: BG87P-27 (antibody, V domains shown) VH: QVQLVQSGAEVKKPGASVKVSCKASGYSFTDYHINWVRQAPGQRLEWMGWIYPGSGYTKYNEKFKGRVTLTRDTSASTAYMELSSLRSEDTAVYFCARSGIYHYVSSYYFDHWGKGTTVTVSS VL: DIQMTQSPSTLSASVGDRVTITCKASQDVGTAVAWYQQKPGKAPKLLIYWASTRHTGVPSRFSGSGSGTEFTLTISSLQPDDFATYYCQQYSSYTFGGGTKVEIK
unit_label: ratio
Emax ratio to BG87P: 0.53
